assay: gradient 5% acetonitrile 3 min, to 50% in 2 min, to 85% in 15 min, held 3 min, 100 µL/min; details: column: Zorbax Extend-C18 2.1 x 50 mm; eluents: water / acetonitrile, 0.1% formic acid
MEASURED_PROPERTY: RP-LC retention time (s)

# MOLECULE, VAL
rows = [
    ("COC(=O)c1ccc(C(=O)OC)c(NS(=O)(=O)CCOc2ccccc2)c1", 968),
    ("Cc1noc(COC2CCN(C(=O)NCCc3ccccc3)CC2)n1", 694),
    ("O=C(Nc1ccc(Cl)cc1)c1cc2c(cc1O)[nH]c1ccccc12", 1210),
    ("O=c1oc2cc(O)ccc2cc1-c1ccc(F)cc1", 852),
    ("Cc1cccc(CN2CCn3c(nnc3[C@@H]3C[C@@H](O)CN3Cc3ccccc3)C2)c1", 650),
    ("CN1C(=O)COc2cc(-c3noc(C(=O)N4CCCCCC4)n3)ccc21", 919),
    ("CCCn1ccc2oc(C)c(C(=O)NC(C)c3ccc(C)cc3C)c2c1=O (stereo not given)", 1190),
    ("Cc1ccc2c(c1)OCC(=O)N2Cc1nc(-c2cccc(Cl)c2)no1", 1160),
    ("C=Cc1ccc(Cn2c(C)c(CNCCc3ccco3)c(C(=O)O)c2C)cc1", 755),
    ("Cc1[nH]c2ccc(F)cc2c1CCNS(=O)(=O)c1ccc(F)cc1", 865),
]
